Just for reference, patent US20240317847A1 is where these values come from.

binders and their reported RGA Efficacy (%)
Molecular target: T1, human IL-11 (human, UniProt P20809 22-199)
T1 sequence: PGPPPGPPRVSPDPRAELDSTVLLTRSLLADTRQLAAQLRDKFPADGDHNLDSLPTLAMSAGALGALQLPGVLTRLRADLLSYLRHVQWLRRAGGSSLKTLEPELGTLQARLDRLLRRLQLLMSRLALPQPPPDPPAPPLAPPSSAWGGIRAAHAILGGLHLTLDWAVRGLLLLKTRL
Test: cell-based or functional assay
observable: RGA Efficacy (%)

{"binder": "TPP-26290 (antibody, V domains shown) VH: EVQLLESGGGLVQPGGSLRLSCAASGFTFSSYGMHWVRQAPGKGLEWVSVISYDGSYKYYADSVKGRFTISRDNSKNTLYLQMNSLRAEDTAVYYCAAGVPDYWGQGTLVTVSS VL: QSVLTQPPSASGTPGQRVTISCTGSSSNIGAGMDVHWYQQLPGTAPKLLIYSNNERPSGVPDRFSGSKSGTSASLAISGLRSEDEADYYCAAWDDSLNGPVFGGGTKLTVL", "experimentalResult": 75.9}
{"binder": "TPP-26301 (antibody, V domains shown) VH: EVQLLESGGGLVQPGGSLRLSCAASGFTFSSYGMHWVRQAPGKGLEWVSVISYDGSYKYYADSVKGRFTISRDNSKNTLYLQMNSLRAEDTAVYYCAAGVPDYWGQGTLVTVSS VL: QSVLTQPPSASGTPGQRVTISCTGSSSNIGADYDVHWYQQLPGTAPKLLIYSNNERPSGVPDRFSGSKSGTSASLAISGLRSEDEADYYCAAWDDSLNGPVFGGGTKLTVL", "experimentalResult": 76.1}
